Listing of entries alongside the reported pIC50.
measured_on: ovine COX-1 (oCOX-1) (Ovis aries, UniProt P05979)
Construct: purchased Cayman Chemicals (Ann Arbor, Mich.)
Sequence (P05979 25-600): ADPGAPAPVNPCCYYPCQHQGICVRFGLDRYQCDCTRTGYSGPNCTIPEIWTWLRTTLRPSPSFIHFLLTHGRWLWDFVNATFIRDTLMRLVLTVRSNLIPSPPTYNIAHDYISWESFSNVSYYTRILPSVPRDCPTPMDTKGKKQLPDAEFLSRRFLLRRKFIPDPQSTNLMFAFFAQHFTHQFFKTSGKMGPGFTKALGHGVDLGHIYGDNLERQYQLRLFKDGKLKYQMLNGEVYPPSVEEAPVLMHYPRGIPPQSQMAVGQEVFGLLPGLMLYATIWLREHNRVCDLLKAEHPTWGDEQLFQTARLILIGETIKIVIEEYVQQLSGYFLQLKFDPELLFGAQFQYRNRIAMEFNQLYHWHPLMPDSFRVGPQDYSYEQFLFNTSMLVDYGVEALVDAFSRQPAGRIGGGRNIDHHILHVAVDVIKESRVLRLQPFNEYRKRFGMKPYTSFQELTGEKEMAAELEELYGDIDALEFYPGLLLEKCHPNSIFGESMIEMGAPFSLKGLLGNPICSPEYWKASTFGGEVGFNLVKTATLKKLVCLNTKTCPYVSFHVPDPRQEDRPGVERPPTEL
procedure_details: LCMS-based COX-1 enzymatic inhibition assay (PGE2 quantification)
Assay type: biochemical
Entry type: numeric. Quantity: pIC50, the -log10 of concentration in molar units.

Here is how some compounds turned out for pIC50.
COc1ncc(NCc2cccs2)nc1-c1ccc(S(C)(=O)=O)nc1 [Compound 60] | 4.28
COc1ncc(NCc2ccccc2)nc1-c1ccc(S(C)(=O)=O)cc1 [Compound 49] | 4.28
CSc1ccc(NCc2cccs2)nc1-c1ccc(S(C)(=O)=O)cc1 [Compound 20] | 4.28
COc1ncc(NCc2ccoc2)nc1-c1ccc(S(C)(=O)=O)cc1 [Compound 44] | 4.28

Ask: Provide one value: measured pIC50 of Cc1cc(CNc2cccc(-c3ccc(S(C)(=O)=O)cc3)n2)co1 [Compound 27]
Reply: 4.28

Numbers sourced from patent US20220348590A1.
